Entries annotated with measured IC50
Target entity: recombinant human CK2 (Homo sapiens (Human), UniProt P68400)
Sequence (P68400 whole entry): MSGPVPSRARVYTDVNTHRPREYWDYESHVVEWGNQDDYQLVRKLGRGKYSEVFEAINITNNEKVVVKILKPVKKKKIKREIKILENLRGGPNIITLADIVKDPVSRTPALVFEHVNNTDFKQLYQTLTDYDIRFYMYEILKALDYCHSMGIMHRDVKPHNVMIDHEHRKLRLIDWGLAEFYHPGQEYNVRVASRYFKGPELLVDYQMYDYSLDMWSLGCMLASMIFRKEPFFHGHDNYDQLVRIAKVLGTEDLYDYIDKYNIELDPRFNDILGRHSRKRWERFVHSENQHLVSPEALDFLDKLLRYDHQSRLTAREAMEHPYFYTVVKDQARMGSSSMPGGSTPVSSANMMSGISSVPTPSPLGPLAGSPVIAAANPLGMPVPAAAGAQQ
Sequence (P67870 whole entry partner): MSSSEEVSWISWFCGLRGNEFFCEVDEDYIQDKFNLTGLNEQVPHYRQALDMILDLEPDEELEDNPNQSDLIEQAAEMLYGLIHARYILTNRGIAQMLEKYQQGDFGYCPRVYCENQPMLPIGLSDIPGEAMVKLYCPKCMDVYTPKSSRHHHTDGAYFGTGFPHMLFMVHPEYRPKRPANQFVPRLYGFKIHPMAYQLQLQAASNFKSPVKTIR
Protocol summary: CK2 assay (cell-free, 33P-ATP filter plate)
Type: biochemical
Particulars: 15 um ATP, cell-free assay; read-out: CK2 (15 um ATP) IC50
Express your answer in nM, writing the number without its unit.

Would you please look over these solved cases?
Compound | Units symbol | IC50
O=C(O)c1ccc2c(c1)nc(NC1CC1)c1nc(NCCCO)ncc12 | nM | 164
NC(=O)c1ccc2c(c1)nc(Nc1cccc(Cl)c1)c1ccncc12 [drawing 1674] | nM | 417
CCOCCCNc1ncc2c(n1)c(NC1CC1)nc1cc(C(=O)O)ccc12 | nM | 45

Field IC50 (entry CCOCCNc1ncc2c(n1)c(NC1CC1)nc1cc(C(=O)O)ccc12 ) reads 58

====

Target entity: recombinant human PIM1 (Homo sapiens (Human))
Protocol summary: PIM-1 kinase activity in cell-free in vitro assay
Type: biochemical
Particulars: 500 nM compound, cell-free assay; read-out: PIM-1: % inh 500 nM
Entries annotated with measured inhibition at 0.5 µM
Express your answer in %, writing the number without its unit.

Would you please look over these solved cases?
Compound | Units symbol | inhibition at 0.5 µM
O=C(O)c1ccc2c(c1)nc(Nc1cc(F)cc(Cl)c1)c1ccncc12 | % | 101
O=C(O)c1ccc2c(c1)nc(Nc1ccccc1Cl)c1ccncc12 | % | 70.7
OCc1ccc2c(c1)nc(Nc1cccc(Cl)c1)c1ccncc12 | % | 4.22
CN(C)C(=O)c1ccc2c(c1)nc(NC1CC1)c1nc(NC3CC3)ncc12 | % | 1.62
O=C(O)c1ccc2c(c1)nc(Nc1ccccc1)c1nc(Nc3ccccc3)ncc12 | % | 13
CC(C)(C)OC(=O)N1CCC(Nc2nc3cc(C#N)ccc3c3sccc23)CC1 | % | 2.44
COCCNc1ncc2c(n1)c(Nc1ccc(F)c(Cl)c1)nc1cc(C(=O)O)ccc12 | % | 22.9
O=C(O)c1ccc2c(c1)nc(Nc1cccc3ncccc13)c1ccncc12 | % | 79.1

Field inhibition at 0.5 µM (entry Cc1cccc(N2CCN(c3nc4cc(C(=O)O)ccc4c4cnccc34)CC2)c1 ) reads 33.7

Field inhibition at 0.5 µM (entry CN1CCCN(C(=O)c2ccc3c(c2)nc(Nc2cccc(Cl)c2)c2ccncc23)CC1 ) reads -11.8

Field inhibition at 0.5 µM (entry O=c1[nH]c2cnccc2c2cnccc12 ) reads 19.8

====

Entries annotated with measured IC50
Test system: HCT-116 human colorectal carcinoma cells
Protocol summary: Cell-proliferation assay using Alamar Blue dye
Assay type: cell-based
Particulars: Homo sapiens, HCT-116, second HCT-116 column (c8); read-out: HCT-116 (uM) cell proliferation modulatory activity

Would you please look over these solved cases?
Molecule | Recorded endpoint | Observed value
N#Cc1ccc2c(c1)nc(Cl)c1sccc12 | IC50 | > 10 µM
CC(=O)NC1CCN(c2nc3cc(C#N)ccc3c3sccc23)C1 (centres unmarked) | IC50 | > 10 µM
CSc1ncc2c(n1)c(Nc1ccccc1C)nc1cc(C(=O)O)ccc12 | IC50 | > 10 µM
NC(=O)c1cc(F)cc(Nc2nc3cc(C(=O)O)ccc3c3cnccc23)c1 | IC50 | > 10 µM

Field IC50 (entry O=C(O)c1ccc2c(c1)nc(Nc1ccccc1)c1ncccc12 ) reads > 10 µM

Field IC50 (entry CCN(CC)CCNc1nc2cc(-c3nnn[nH]3)ccc2c2sccc12 ) reads > 10 µM

====

Entries annotated with measured IC50
Target entity: recombinant human PIM1 (Homo sapiens (Human), UniProt P11309)
Sequence (P11309 whole entry): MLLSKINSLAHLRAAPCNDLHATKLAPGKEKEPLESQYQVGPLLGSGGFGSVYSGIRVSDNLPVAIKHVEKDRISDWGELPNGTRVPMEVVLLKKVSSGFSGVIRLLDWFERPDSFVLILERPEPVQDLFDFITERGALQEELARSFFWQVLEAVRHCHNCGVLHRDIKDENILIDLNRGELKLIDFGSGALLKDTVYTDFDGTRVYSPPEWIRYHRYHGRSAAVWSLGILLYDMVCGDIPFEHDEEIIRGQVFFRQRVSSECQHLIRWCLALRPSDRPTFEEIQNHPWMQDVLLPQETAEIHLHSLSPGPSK
Protocol summary: PIM-1 kinase activity in cell-free in vitro assay
Type: biochemical
Particulars: cell-free
Express your answer in nM, writing the number without its unit.

Would you please look over these solved cases?
Molecule | Units symbol | Observed value
O=C(O)c1cc(F)cc(Nc2nc3cc(C(=O)O)ccc3c3sccc23)c1 | nM | 521
O=C(O)c1ccc2c(c1)nc(Nc1cc(F)ccc1F)c1ccsc12 | nM | 308
O=C(O)c1ccc2c(c1)nc(Nc1cc(F)cc(Cl)c1)c1ccsc12 | nM | 299

Field IC50 (entry Cc1cccc(Nc2nc3cc(-c4nnn[nH]4)ccc3c3sccc23)c1 ) reads 386

Field IC50 (entry C#Cc1cccc(Nc2nc3cc(C(=O)O)ccc3c3cnccc23)c1 [drawing 1555] ) reads 296

====

Entries annotated with measured IC50
System: HCT-116 human colorectal carcinoma cells
Protocol summary: Cell-proliferation assay using Alamar Blue dye;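 note: cells exposed to compound for about 4 days, then Alamar Blue added and dye fluorescence read after about 4 h, compared with medium-only control wells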
Type: cell-based
Particulars: Homo sapiens, HCT-116, second HCT-116 column (c8); read-out: HCT-116 (uM) cell proliferation modulatory activity

Compound | Recorded endpoint | Observed value
COC(=O)c1ccc2c(c1)nc(NN)c1ccncc12 | IC50 | > 10 µM

Consider now this further compound.
Field IC50 (entry NC(=O)c1ccc(Nc2nc3cc(C(=O)O)ccc3c3cnccc23)cc1 ) reads > 10 µM

====

Entries annotated with measured inhibition at 0.5 µM
Target entity: recombinant human CK2 (Homo sapiens (Human))
Protocol summary: CK2 assay (cell-free, 33P-ATP filter plate)
Type: biochemical
Particulars: 500 nM compound, cell-free assay; read-out: CK2: % inh 500 nM
Give the figure together with its unit, number first.

Compound | inhibition at 0.5 µM
N#Cc1ccc2c(c1)nc(Nc1ccc(F)cc1)c1cscc12 | 9.21%

Consider now this further compound.
Field inhibition at 0.5 µM (entry COCCNc1nc2cc(-c3nnn[nH]3)ccc2c2sccc12 ) reads 47.2%

====

Entries annotated with measured inhibition at 0.5 µM
Target entity: recombinant human CK2 (Homo sapiens (Human))
Protocol summary: CK2 assay (cell-free, 33P-ATP filter plate)
Type: biochemical
Particulars: 500 nM compound, cell-free; read-out: CK2: % inh 500 nM
Give the figure together with its unit, number first.

Field inhibition at 0.5 µM (entry COC(=O)c1ccc2c(c1)nc(Nc1ccc(F)c(Cl)c1)c1ncncc12 ) reads 6.26%

Field inhibition at 0.5 µM (entry COCCNC(=O)c1cccc(Nc2nc3cc(C(=O)O)ccc3c3sccc23)c1 ) reads 65.2%

Field inhibition at 0.5 µM (entry COC(=O)c1ccc2c(c1)nc(Nc1ccccc1)c1nc(S(C)(=O)=O)ncc12 ) reads -44.2%

====

Target entity: other protein kinases (each individual kinase)
Protocol summary: Standardized radiometric kinase assays, IC50 over 10 drug concentrations
Assay type: biochemical
Particulars: Rsk4(h); estimated
Recorded endpoint: pIC50
Answer as the number alone; pIC50 is minus log10 of concentration in mol/L.

Field pIC50 (entry Clc1ccccc1Nc1nc2c(-c3nnc[nH]3)cccc2c2cnccc12 ) reads 7.43

====

Target entity: recombinant human CK2 (Homo sapiens (Human), UniProt P68400)
Protocol summary: CK2 assay (cell-free, 33P-ATP filter plate)
Format: biochemical
Particulars: 500 nM compound, cell-free assay; read-out: CK2: % inh 500 nM
Recorded endpoint: inhibition at 0.5 µM

Field inhibition at 0.5 µM (entry CN1CCCC(Nc2nc3cc(-c4nnn[nH]4)ccc3c3sccc23)C1 (centres unmarked) ) reads 31.4%

Field inhibition at 0.5 µM (entry CN1CCC(Nc2nc3cc(C#N)ccc3c3sccc23)CC1 ) reads -8.22%

Field inhibition at 0.5 µM (entry Clc1ccc(Nc2nc3cc(-c4nnn[nH]4)ccc3c3ccsc23)cc1 ) reads 23.9%

Field inhibition at 0.5 µM (entry CC1(C)CC(Nc2nc3cc(-c4nnn[nH]4)ccc3c3sccc23)CC(C)(C)N1 ) reads -5.33%

Field inhibition at 0.5 µM (entry CC(C)OCCCNc1nc2cc(C(=O)O)ccc2c2cnccc12 ) reads 98.5%

Field inhibition at 0.5 µM (entry N#Cc1ccc2c(c1)nc(Nc1ccc(F)c(Cl)c1)c1cscc12 ) reads -8.36%

Field inhibition at 0.5 µM (entry O=C(O)c1ccc2c(c1)nc(Nc1cc(F)ccc1Br)c1ccncc12 ) reads 98.4%

Field inhibition at 0.5 µM (entry Clc1cccc(Nc2nc3ccccc3c3cnccc23)c1 ) reads -42.8%

Field inhibition at 0.5 µM (entry N#Cc1ccc2c(c1)nc(Nc1cccc(C(F)(F)F)c1)c1cscc12 ) reads -2.65%

Field inhibition at 0.5 µM (entry N#Cc1cc(F)cc(Nc2nc3cc(C(=O)O)ccc3c3cnccc23)c1 ) reads 101%

Field inhibition at 0.5 µM (entry O=C(O)c1ccc2c(c1)nc(Nc1cc(F)cc(Cl)c1)c1ccncc12 ) reads 98.7%

Field inhibition at 0.5 µM (entry CN(c1cccc(Cl)c1)c1nc2cc(C(=O)O)ccc2c2cnccc12 ) reads 89.6%

Field inhibition at 0.5 µM (entry COC(=O)c1ccc2c(c1)nc(NN)c1ccncc12 ) reads -8.65%

Field inhibition at 0.5 µM (entry O=C(O)c1ccc2c(c1)nc(Nc1ccccc1OC(F)(F)F)c1ccncc12 ) reads 92%

Field inhibition at 0.5 µM (entry C#Cc1cccc(Nc2nc3cc(C(=O)O)ccc3c3ccncc23)c1 ) reads 72.4%

Field inhibition at 0.5 µM (entry NC(=O)c1cc(Cl)cc(Nc2nc3cc(C(=O)O)ccc3c3cnccc23)c1 ) reads 102%

Field inhibition at 0.5 µM (entry O=C(O)c1ccc2c(c1)nc(Nc1ccccc1)c1cnccc12 ) reads -40.3%

Field inhibition at 0.5 µM (entry c1cc2c(N3CCC(N4CCCC4)CC3)nc3cc(-c4nnn[nH]4)ccc3c2s1 ) reads 38.6%

Field inhibition at 0.5 µM (entry OCCNc1nc2cc(-c3nnn[nH]3)ccc2c2sccc12 ) reads 51.3%

Field inhibition at 0.5 µM (entry NC(=O)c1cc(F)cc(Nc2nc3cc(C(=O)O)ccc3c3cnccc23)c1 ) reads 99.2%

Field inhibition at 0.5 µM (entry CN(CCN1CCCC1)c1nc2cc(C#N)ccc2c2sccc12 ) reads -20.3%

Field inhibition at 0.5 µM (entry C#Cc1cccc(Nc2nc3cc(C(=O)O)ccc3c3nccnc23)c1 ) reads 85.3%

Field inhibition at 0.5 µM (entry N#Cc1ccc2c(c1)nc(N1CCC(c3cccnc3)C1)c1ccsc12 (centres unmarked) ) reads 0.642%
